- EXPERIMENTAL_PROTOCOL: Cytotoxicity against human HuH7 cells after 2 hrs by WST-1 assay relative to control
- Type: cell-based, Huh-7
Recorded CC50 at 2 h, one value per entry.
QUANTITY_NAME: CC50 at 2 h

[[record]]
compound = "CC(C)OC(=O)[C@H](C)NP(=O)(OC[C@@]1(F)O[C@@H](n2ccc(=O)[nH]c2=O)[C@](C)(F)[C@@H]1O)Oc1cccc2ccccc12 (some centres undefined)"
quantity_name = "CC50 at 2 h"
readout_value = "> 100 µM"

[[record]]
compound = "CC(C)OC(=O)[C@H](C)NP(=O)(OC[C@@]1(F)O[C@@H](n2ccc(=O)[nH]c2=O)[C@](C)(F)[C@@H]1O)Oc1ccccc1 (some centres undefined)"
quantity_name = "CC50 at 2 h"
readout_value = "> 100 µM"

[[record]]
compound = "CCC(=O)O[C@H]1[C@@](C)(F)[C@H](n2ccc(=O)[nH]c2=O)O[C@]1(F)COP(=O)(N[C@@H](C)C(=O)OC(C)C)Oc1cccc2ccccc12 (some centres undefined)"
quantity_name = "CC50 at 2 h"
readout_value = "67.8 µM"

[[record]]
compound = "CC(C)OC(=O)[C@H](C)NP(=O)(OC[C@@]1(F)O[C@@H](n2ccc(=O)[nH]c2=O)[C@](C)(F)[C@@H]1O)Oc1ccc2ccccc2c1 (some centres undefined)"
quantity_name = "CC50 at 2 h"
readout_value = "> 100 µM"

